Every entry's value here was drawn from paper PMC9482650.

Biological target: T1, DVL3, Q92997
T1 sequence (Q92997 244-331, limits assumed, looked up): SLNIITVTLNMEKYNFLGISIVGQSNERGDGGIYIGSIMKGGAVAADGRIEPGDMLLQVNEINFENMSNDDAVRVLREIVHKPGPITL
Experiment: holdup assay
Parameters: key: below the threshold = too weak to quantify, mostly under pKd 3.1 to 4
Details: plain residues with an end cap or a label only (N-terminal biotin on a linker: ado-ado)
quantity_kind: pKd

Fill in pKd for record LKVPPEERLI [CRB2, Q5IJ48] below the threshold

Supply recorded pKd for QGPVETESVV [SLC45A4, Q5BKX6] here. below the threshold

For the binder FNSYSLTGYV [CLDN2, P57739] , report pKd. 3.81

Consider the binder TACCHSETVV [TGFA, P01135] . State its measured pKd. below the threshold

For the binder EALLQMESVA [CAVIN3, Q969G5] , give its measured pKd value. below the threshold

Indicate its recorded pKd; the binder in question is ETQVTAETVI [TMEM225B, P0DP42] below the threshold

Give the measured pKd for DTTVPESEDL [MYOZ2, Q9NPC6] below the threshold

Consider the record given below.
Please report pKd for the following binder: YNNCLEILRV [DCAF7, P61962] 3.55
